Measured values drawn from PubChem BioAssay (NCI) for this set.

The entries below come with measured growth inhibition values attached.
EXPERIMENT: NCI Yeast Anticancer Drug Screen. Data for the sgs1 mgt1 strain (AID 161);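 also: 0% = growth of cultures given vehicle only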
TEST CONTEXT: S. cerevisiae sgs1 mgt1 strain, stronger effect = higher value; at 50.0 µM unless noted
About 79,000 compounds went through this panel and 15% of them were active in at least one assay; those are over-represented in the sample as a whole. Calls of active or inactive are those of the source. Rule as the data show it: active = growth inhibition above about 70%; inactive = the rest.

{"columns": ["MOLECULE", "growth inhibition"],
 "data": [
  ["C/C(CCCCCCCCCCCC/C(C)=N\\Nc1ccc([N+](=O)[O-])cc1[N+](=O)[O-])=N/Nc1ccc([N+](=O)[O-])cc1[N+](=O)[O-]", "-3.2% (inactive)"],
  ["O=C(O)C1CC(=O)N(Cc2ccccc2)C1 (centres undefined)", "34.6% (inactive)"],
  ["COc1cc(OCc2ccc3oc(=O)c(-c4ccccc4)nc3c2)cc(OC)c1OC", "2.2% (inactive)"],
  ["c1ccc(CN(Cn2cccn2)Cn2cccn2)nc1", "23.1% (inactive)"]
]}

====

growth inhibition listing for selected compounds.
EXPERIMENT: NCI Yeast Anticancer Drug Screen. Data for the mec2-1 strain (AID 157)
TEST CONTEXT: S. cerevisiae mec2-1 strain, stronger effect = higher value; at 50.0 µM unless noted
This is part of a sample that, as a whole, favours compounds with a hit. Of some 79,000 tested, about 15% had one in any assay.

{"columns": ["COMPOUND", "growth inhibition / %"],
 "data": [
  ["CCCCCCCCCCCCCCCCCC(=O)CBr", 9.9],
  ["O=c1c(O)c(-c2cc(O)c(O)c(O)c2)oc2cc(O)cc(O)c12", -21.1],
  ["O=Cc1ccc(N2CCOCC2)cc1", -2.1],
  ["Cc1cccc(OC(=O)NC2CCCCC2)c1", -4.25],
  ["CCCN(CCC)C(=O)c1ccccc1C", -2],
  ["O=C1c2scc(-c3ccc(F)cc3)c2-n2cccc21", 12.5],
  ["COC1CCC(/C=C(\\C#N)C2CCC(C)CC2)CC1 (configuration not stated)", 22.1]
]}

====

EXPERIMENT: NCI Yeast Anticancer Drug Screen. Data for the mlh1 rad18 strain (AID 175)
TEST CONTEXT: S. cerevisiae mlh1 rad18 strain growth inhibition, stronger effect = higher value; at 50.0 µM unless noted
Compounds without any hit were thinned out: in the full panel of roughly 79,000, 15% have a hit.

{"columns": ["MOLECULE", "READING UNIT", "growth inhibition"],
 "data": [
  ["O=C(O)CCC(CC(=O)O)C(=O)O (stereo unspecified)", "%", 15.4],
  ["CCOc1cccc(OCC)c1", "%", 13.9],
  ["Cc1cccc(C)c1I", "%", -50.1],
  ["CC(=O)OCC1COC(c2ccc(C)cc2)O1 (stereo unspecified)", "%", -11.8],
  ["CC(=O)c1ccc(NC(=O)C(=O)C(C(=O)c2ccc(Cl)c(Cl)c2)C2OC(=O)c3ccccc32)cc1 (stereo unspecified)", "%", 49.3],
  ["C(CCCC1CO1)CCC1CO1 (stereo unspecified)", "%", 7.65],
  ["Nc1sc(=S)[nH]c1-c1ccccc1", "%", 11.1],
  ["O=C(O)CCC(=O)N1c2ccccc2CC1c1c[nH]c2ccccc12 (stereo unspecified)", "%", 5.6],
  ["O=C(O)/C=C1\\NC(=O)NC1=O", "%", 33],
  ["CC(C)c1cccc(C(C)C)c1NC(=O)N1CCCCC1", "%", 10.2],
  ["O=C(/C(=C1\\SS/C(=C(/C(=O)c2ccccc2)c2ccccc2)S1)c1ccccc1)c1ccccc1", "%", 6.45],
  ["CC(C)(C(N)C(=O)O)C(N)C(=O)O (stereo unspecified)", "%", -8.8],
  ["CCCCSc1ncnc2nc[nH]c12", "%", -15.7],
  ["CCC(C)C(C#N)(CCN(CC)CC)c1ccccc1 (stereo unspecified)", "%", 14.5],
  ["COCC(Br)C(OC)OC (stereo unspecified)", "%", 68.3],
  ["Fc1ccc2c(c1)-c1ccccc1C2", "%", -19.6],
  ["NC(=O)NN(Cc1ccc2c(c1)OCO2)N=O", "%", 1.9],
  ["O=C1C=CC(=Nc2ccc3c(c2)-c2ccccc2C3)O1", "%", 12.1],
  ["O=S(=O)([O-])[O-].O=c1[nH]cnc2[nH]ncc12.O=c1[nH]cnc2[nH]ncc12.[Zn+2]", "%", -17.6],
  ["CCS(=O)(=O)c1ccc(NC(=O)OC2CCC3(C)C(=CCC4C3CCC3(C)C(C(C)CCCC(C)C)CCC43)C2)cc1 (stereo unspecified)", "%", 3.65],
  ["S=c1[nH]nc(-c2ccccc2Cl)o1", "%", -66.2],
  ["COc1ccc(/C=C2\\N=C3N(Cc4ccccc4)C=C(N)N3C2=O)cc1", "%", 9.75],
  ["COc1ccc(-c2cc(=O)c3c(O)c(OC)c(O)cc3o2)cc1O", "%", 17.1],
  ["CCOC(=O)C1Oc2ccc([N+](=O)[O-])cc2C1(C)O (stereo unspecified)", "%", -4.45],
  ["CCOC(=O)C(=O)/C(=C/N1C(=O)CC(=O)NC1=S)C(=O)OCC", "%", -10.6],
  ["Cc1nc2c(c(=O)[nH]1)C(c1ccccc1)C(C)(C)O2 (stereo unspecified)", "%", 6.85],
  ["NC(=O)CSCC(N)=O", "%", 22],
  ["COc1cccc(C(=O)c2ccncc2C)c1OC", "%", -8.1],
  ["O=CNCC(=O)O", "%", 7.9],
  ["NC(=O)c1ccc(-c2csc(=S)[nH]2)s1", "%", -5.35],
  ["COc1ccc(COC(=O)Nc2ccc(Br)cc2)c(OC)c1", "%", 9.55]
]}

====

# reported growth inhibition; entries follow
EXPERIMENT: NCI Yeast Anticancer Drug Screen. Data for the bub3 strain (AID 167)
TEST CONTEXT: S. cerevisiae bub3 mutant strain, stronger effect = higher value; at 50.0 µM unless noted
Compounds without any hit were thinned out: in the full panel of roughly 79,000, 15% have a hit.
ASSAY METRIC: growth inhibition (%)

{"columns": ["COMPOUND", "READING UNIT", "REPORTED"],
 "data": [
  ["COc1ccc(/C=C/C(=O)c2sc(Nc3ccc([N+](=O)[O-])cc3)nc2C)cc1", "%", 27.5],
  ["O=C(O)CNOCN1C(=O)c2ccccc2C1=O", "%", -16],
  ["CC(=O)c1c(C)cc2cc(C)cc(O)c2c1O", "%", 0.4],
  ["O=C(O)CCNC(=O)CNC(=O)OCc1ccccc1", "%", -0.25],
  ["CC1=CCCC2C(C=O)(C1)CC(C)C2(CO)CC/C(=C/CO)CO (stereo not drawn)", "%", -3.4],
  ["O=C(O)CSc1nc2ccccc2[nH]1", "%", -35.4],
  ["NC(=S)C(=S)N=Cc1c(O)c2ccccc2oc1=O", "%", 23.1],
  ["COC(OC)C(C)=O", "%", -15.5]
]}

====

EXPERIMENT: NCI Yeast Anticancer Drug Screen. Data for the rad50 strain (AID 155);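 also: 0% = growth of vehicle-only cultures of the same strain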
TEST CONTEXT: S. cerevisiae rad50 strain growth inhibition, stronger effect = higher value; at 50.0 µM unless noted
Procedure: Growth inhibition of yeast strains with defined genetic alterations is measured as a screen for potential anti-cancer activity. Selected strains with alterations in DNA damage repair or cell cycle control were exposed to compounds and growth inhibition was measured relative to vehicle treated controls. The strain used in this assay is rad50
About 79,000 compounds went through this panel and 15% of them were active in at least one assay; those are over-represented in the sample as a whole.
Entries annotated with measured growth inhibition
ASSAY METRIC: growth inhibition (%)

{"columns": ["MOLECULE", "REPORTED"],
 "data": [
  ["O=C1CSC(c2ccccc2Cl)N1N1C(=O)CSC1c1ccccc1Cl (stereo unspecified)", 32.4],
  ["Cn1cc(Cc2ccccc2)c(=O)[nH]c1=O", 6.25],
  ["CCC(C)(O)c1cn(-c2ccc(Cl)cc2)nn1 (stereo unspecified)", -31.4],
  ["CN(C1=CC(=O)c2ccccc2C1=O)C1CCCCC1", 14.1],
  ["Cc1ccc(OC(=O)Oc2ccc(C)cc2)cc1", 18.8],
  ["S=C(NC1CCCCC1)SSSSC(=S)NC1CCCCC1", 15.7],
  ["CC(=O)OCCc1cccnc1/C=N/O", -12.9],
  ["C=C(c1c(C)cccc1OC(C)=O)c1c(C)cccc1OC(C)=O", -8.8],
  ["CCN(CC)CCN1CC(=O)N2CCCCN2C(=O)C1", 17.2],
  ["CCCCC(CC)C(O)P(=O)(O)O (stereo unspecified)", -9.2],
  ["Nc1c(Cl)ncnc1NCc1ccco1", 5.25],
  ["CC1/C(=N\\O)CC2C3(C)CCC2(C(C)C(=O)O)C(=O)C13 (stereo unspecified)", 4.75],
  ["CC(C)(C)c1cc(-n2nc3ccccc3[n+]2[O-])c(O)c(C(C)(C)C)c1", 4.35],
  ["O=C(NCCCl)Nc1c(Cl)cccc1Cl", -4.6],
  ["CC(C)C1Oc2ccc(Br)cc2C1O (stereo unspecified)", 11.2],
  ["CC1(C)OCC(C2OC3OC(C)(C)OC3C2N)O1 (stereo unspecified)", 10.8]
]}
